Test: protein stability index of a GFP-peptide fusion (GPS, HEK-293T) (PSI 1-6); higher = more stable;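 also: 24-mer peptide tiles fused after GFP, lentivirally expressed, FACS-sorted into six equal bins by GFP/DsRed ratio, decoded by Illumina sequencing, PSI is the read-weighted mean bin number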
Details: treatment: DMSO; c terminus: a fixed tail appended
Label criterion met when protein stability index >= 3; otherwise criterion not met.

Please review the entries below; each comes with its answer.
chain_sequence="QVQSLITNVESQLAEIRSDLERQN [KRT33B]" cat="criterion met"
chain_sequence="DALMKEQLVEMTGLSPRVIRVWFQ [ISL2]" cat="criterion not met"
chain_sequence="PRLTMHYPCLEKPRIWSLAHTATA [IRX6]" cat="criterion not met"
chain_sequence="TTTTFPMSNHTRERVTVAKLTLEN [STK38L]" cat="criterion met"
chain_sequence="WIEHSKLREINFKIVEFNPMVLKG [GLT8D2]" cat="criterion not met"

Now examine the next entry.
Does FDSPSLCSSSTRSVLKRPERSQEE [CDC25A] have a reported protein stability index of at least 3?
criterion met

----------
Assay: protein stability index of a GFP-peptide fusion (GPS, HEK-293T) (PSI 1-6); higher = more stable
Settings: treatment: MLN4924 1 uM, 8 h; c terminus: a fixed tail appended
Each record's protein stability index is compared with low band (below 3), middle band (3 to below 4), high band (4 or more) to give its class.

Record CTDSVVKYELMRPSNKAPLLVLCE [EHMT1] — which class?
low band

Which class does RLVVEFPATGGAIPSWQIRTVKLI [PKD2L1] fall in?
low band

Hello team, could you let me know which band the following sequence falls into: AGPAGTGTPSLLRGKRGGHATNYR [EMID1]
high band

Class? Entry: TGGSADLFGGFADFGSAAASGSFP [CLINT1]
middle band

Hey, which category is DLDNYFTARRLLSQVRALDRFQVP [NFE2L1] in, do you know?
low band

Which class does RRSISSSRSENVLSRLSLMAMPNG [PSD2] fall in?
middle band

Please classify: CNPLRYSVLMGHGVCMGLVAAACA [OR10K2]
low band

For GNFDWVGNDFTQNAGTGLVINQAD [PLD5] , which protein stability index bin applies?
high band

For this sequence, which bin applies? MARGRKMSKPRAVEAAAAAAAVAA [KMT5A]
high band

----------
protein stability index: recorded values
Test: protein stability index of a GFP-peptide fusion (GPS, HEK-293T) (PSI 1-6); higher = more stable
Conditions: treatment: DMSO; c terminus: a fixed tail appended

# annotated cases, reported protein stability index shown
chain_sequence="TWKQELLKLMDRHKKDCAREKPFK [ZNF75A]" test_value=2.69
chain_sequence="YAMKYMNKQKCVERNEVRNVFKEL [STK32A]" test_value=2.07
chain_sequence="RQKGTGKEYAAKFIKKRRLSSSRR [DAPK3]" test_value=4.2
chain_sequence="DEEHMEEAITSASFLEQIMAPLQP [FAM189A2]" test_value=4.74
chain_sequence="PVTICCGHSFCRPCLCLSWEEAQS [TRIM43]" test_value=2.61
chain_sequence="YCKNESGSRSNGMWAHSMTVQDYQ [ATE1]" test_value=2.35

Report measured protein stability index; entry is PAPEAAHTTGPTGSAPNSPMALLT [TFE3]
4.67

Using the record for TEDFWRMLWEHNSTIVVMLTKLRE [PTPRD] , state its measured protein stability index.
2.21

Give reported protein stability index value for KQGYILNSDQTTCRIQDLCAMEDH [MATN2]
3.35

Using the record for DNVRSLKVESGAWIGYEHTSFCGQ [CRYBA1] , state its measured protein stability index.
3.14

Look up and state reported protein stability index for LAEALLHPFFAGLTPEERSFHTSR [CLK3]
2.29

Give the reported value of protein stability index for this record: SASDGSSFVVARYFPAGNVVNEGF [GLIPR2]
2.58

Output measured protein stability index for this item: DLDACALVRGHRRRLLRRLSPSRG [ZSWIM9]
4.11

----------
Experiment: protein stability index of a GFP-peptide fusion (GPS, HEK-293T) (PSI 1-6); higher = more stable
Details: treatment: DMSO; c terminus: a fixed tail appended
observed_property: protein stability index
Answer as a number with no unit attached.

chain_sequence="RDVYLPAGKWRSYKGELFDKTPVL [MYORG]" test_value=2.32

Please indicate protein stability index recorded for LWSQSYEDSSNQEEEGPSTFPDLE [MAGEA3]
5.26

Return the recorded protein stability index value; entry: MSRRTRCEDLDELHYQDTDSDVPE [MYBL2]
5.33

----------
Assay: protein stability index of a GFP-peptide fusion (GPS, HEK-293T) (PSI 1-6); higher = more stable
Settings: treatment: DMSO; c terminus: a fixed tail appended
Below: a set of entries, each annotated with reported protein stability index.
Answer with the value's number alone.

Look over these answered cases.
chain_sequence="TYLVSERLEREERNQTQVLRQQQD [FAF2]" test_value=4.97
chain_sequence="GGKKDKARYIDTHNRVSKEDEDIY [PLK2]" test_value=4.37
chain_sequence="KQPPWEFLQVLEPGARGLWKPPDI [SPAG8]" test_value=2.45
chain_sequence="NICELAARMLFSAVEWARNIPFFP [NR2F2]" test_value=3.61
chain_sequence="LSEEEEDEEEEEEEEEEGRFYYSE [KCNA4]" test_value=5.2
chain_sequence="KVPIAQDELALSLGYAASLEASVQ [C2CD2L]" test_value=3.65

Annotate the sequence MEMAKFRYILPVYGICREPVGLVM [RIPK4] with its measured protein stability index.
2.69

# return recorded protein stability index for entry VWKHGITPPLKNVRKKRFRKTQKK [TAF7L]
3.46

# return recorded protein stability index for input SEKKTISFQGCMAQLFMDHLFAGA [OR4A15]
2.56

Find the measured protein stability index of NALVTKLLLDCGAEVNAVDNEGNS [FEM1B] and report it.
3.64

Read the entry TETPLEGDFAWERVRGLGLPKLYL [CDKN1A] and write its reported protein stability index.
2.18

Look up and report measured protein stability index for this entry: VNPTGNLPMWSNQTWNNSTWSNQT [NANOGP8]
2.75

Output measured protein stability index for this item: EVFIEWGISAKVFGATTNYGKDIV [ZBED1]
2.35

----------
Experiment: protein stability index of a GFP-peptide fusion (GPS, HEK-293T) (PSI 1-6); higher = more stable
Conditions: treatment: MLN4924 1 uM, 8 h; c terminus: a fixed tail appended
Items are presented alongside their recorded protein stability index.
# print the numeric value only

chain_sequence="LCATHFGEPLEKVASVGNSRPTGQ [KISS1]" test_value=4.01
chain_sequence="TDHQTPPTSPVQGTTPQISPSTLI [HDAC6]" test_value=4.86

Supply protein stability index value. Item: SRGGPPPPPPPPHNSGPPPPPARG [WASL]
5.07

Write down protein stability index measured for item LGACVRTAVAQGGWRSLWLGWGPT [SLC25A39]
2.04

Supply reported protein stability index belonging to this sequence: QQDDSDEYDDDDSAASTSFQPQPV [ZNF207]
5.37

// Input: WIEHSKLREINFKIVEFNPMVLKG [GLT8D2] . Output its protein stability index only.
2.35

Entry LRLEEPRMDFAAKLMKNIRFPLMT [KLHL13] needs its protein stability index filled in; supply it.
2.43

----------
Entries and their protein stability index
Assay: protein stability index of a GFP-peptide fusion (GPS, HEK-293T) (PSI 1-6); higher = more stable
Details: treatment: MLN4924 1 uM, 8 h; c terminus: a fixed tail appended
The answer should be a number; do not append a unit.

// below: answered sequences
chain_sequence="QTGDLLSTFHTISPSFQLKAAALP [PLAGL1]" test_value=2.67
chain_sequence="PSLYSSYHQGCLVNPTGNLPMWSN [NANOGP8]" test_value=2.37
chain_sequence="GLLALAIGLWGLAVKGSLGSDLGG [TSPAN10]" test_value=3.4
chain_sequence="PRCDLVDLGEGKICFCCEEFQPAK [FAM189A2]" test_value=3.67
chain_sequence="EPEKLYAMPDPAGPDGHLPAVATL [ESRRA]" test_value=4.69

Tell me protein stability index reported for VDREKGLSAEPGWQAKREEEEEEE [CHGA]
5.7

----------
Each item that follows carries a reported protein stability index.
Experiment: protein stability index of a GFP-peptide fusion (GPS, HEK-293T) (PSI 1-6); higher = more stable
Conditions: treatment: MLN4924 1 uM, 8 h; c terminus: a fixed tail appended
Just the number, please.

Below, each entry is followed by its recorded protein stability index result.
chain_sequence="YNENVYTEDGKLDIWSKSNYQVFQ [MED27]" test_value=2.97
chain_sequence="PMQERRASFYACRLDKHLYVIGGR [KLHL14]" test_value=2.23
chain_sequence="PCGKYNAMVLELLGPSLEDLFDLC [CSNK1G1]" test_value=2.21
chain_sequence="LRERVKKVKRSLRQARKKGRHLEL [CCDC3]" test_value=3.58

// switching to the query sequence
Please give measured protein stability index of the following entry: SRSAILIQHRRTHTDSKYEHAIAE [ZNF396]
3.72
